Ref: patent US20250009742A1

experiment.notes: Cell viability assay (EZ-Cytox), cytotoxicity
Assay type: cell-based
assay.context: human, HepAD38 cells, @100 μM, read-out: Cytotoxicity % Livability (@100 μM)
quantity.kind: viability at 65 h, 100 µM (%)
Give bare numbers, in %.

The examples below pair each entry with its known result.
COC(=O)C1CCc2[nH]nc(CN(C(=O)Nc3ccc(F)c(Cl)c3)c3ccc(OC)nc3)c2C1 (centres unmarked) [Example 53]    58.9
COc1ncc(N(Cc2cc(C(F)F)[nH]n2)C(=O)Nc2cccc(C(F)F)c2)cn1 [Example 178]    68.5
COc1ccc(N(Cc2cc(C(F)F)[nH]n2)C(=O)Nc2ccc(F)c(Cl)c2)cn1 [Example 72]    48.5
COc1ncc(N(Cc2cc(C(F)(F)F)[nH]n2)C(=O)NC23CC(Cl)(C2)C3)cn1 [Example 6]    100

Kindly consider the entry below.
**Q:** Report viability at 65 h, 100 µM for COc1ccc(N(Cc2cc(C(F)F)[nH]n2)C(=O)Nc2ccc(F)c(Cl)c2)nn1 [Example 97] please.
**A:** 86.2
